Target: T1, endothelial protein C receptor (EPCR), extracellular domain, biotinylated on the N-terminal BAP tag (human, UniProt Q9UNN8 18-210, biotin attached to the N-terminal BAP tag (BirA))
T1 construct: also called biotinylated recombinant EPCR; ECPR
T1 sequence: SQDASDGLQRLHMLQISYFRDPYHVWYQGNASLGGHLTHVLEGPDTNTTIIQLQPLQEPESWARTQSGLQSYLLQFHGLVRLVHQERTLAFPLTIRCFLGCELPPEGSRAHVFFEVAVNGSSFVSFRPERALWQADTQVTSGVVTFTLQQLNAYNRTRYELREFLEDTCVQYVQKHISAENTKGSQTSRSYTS
Experiment: SPR
Settings: both partners purified
Attribute: koff

>  <binder>
CIDRα1.6b domain GA018_ERS010570 (domain or fragment, also called CIDRa1.6b GA018_ERS010570; GA018 (1.6b)) PYCGLDCVGTECTAKEEIYPDCVYNGEYDPPKDVRPTEINVIDSGNAVNISEKLNDFCTNPTNPNDKIYQKWQCYYKSSKVNKCQMTSLTQTLQKHHYVMTFYIFFDLWVKNLLRDSVKWEIELKDCINNTNVTDCNNKCNKNCVCFDKWVKQKKKEWDSIKKLFKTEKDEMKKYYTNINKNFEFFFFRVMYELNNEEAKWNKLMENLRIKIKSSKRNKRTKDSEGVIKVLFDHLKETATICKDNNTNEACVSSQNATTNPC

>  <koff>
0.000531 s⁻¹

$$$$
>  <binder>
CIDRα1.1 domain GA011_ERS009959 (domain or fragment, also called CIDRa1.1 GA011_ERS009959; GA011 (1.1)) PDCVVYCEGGECKENENGDNCRSEIIKEIVRSETPTVIDVLYSGNGQDHITEKLDHFCSSTNKEDRKYYKTLKCYNKNNDYNKCEMISWLYQDPKESNLMLSIQCFYSWAQNLLIDTIRWEHQLKDCINNTNVTDCKSNCNKNCKCYKKWIEQKGSEWQQVKQVLKKKDKNSENYYDKLKDVFDTLYFEVMHELNKGKEKGKSEELTEDLKKKFGPSKKNTDAADSKDAIEFLLDHLNDNAITCKDNNSLAVENCTRTKSNPC

>  <koff>
7.24e-05 s⁻¹

$$$$
>  <binder>
CIDRα1.7 domain of PfEMP1 IT4var22 (domain or fragment, also called CIDRa1.7 IT4var22_IT4; IT4var22 (1.7)) PYCGLDCGGKTCTAKQEIYPDCVYNGAYEPPNGAETTEITVLYSADQEGDISNKLSEFCNDENNKNSQKWQCYYVSSENNGCKMEKKNANHTPEVKITKFHNFFEMWVTYLLTETITWKDKLKTCMNNTKTADCIHECNKNCVCFDKWVKQKEDEWNSIKKLFTKEKKMPKQYYGNINIYFESFFFHVMKKLNKEAKWNKLMDELRNKIELSKGNEGTKDLQDAIELLLEYLKEKSTICKDNNTNEACDPTVDPTKNPC

>  <koff>
0.00105 s⁻¹

$$$$
>  <binder>
CIDRα1.1 domain of PfEMP1 RAJ116var08 (domain or fragment, also called CIDRa1.1 RAJ116var08_RAJ116; RAJ116var08 (1.1)) PDCVVDCTGGNCKENKKHDNCRSKIIEEILRSEETTDIDVLYSGKGPGAITKKLHDFCSNPNNYKRANVQKWKCYNKNKDYNNCEMNISSYKDATDPNVMLSVQCFYSWAQNLLIDIIRWEHQLKDCINNTNVTDCDNECNKNCECFEKWIKQKQKEWQQVKEVLKKKDENSHNYYNKLRSVFDSFLYQVMFALNNEEKGKWDQFTEDLEKKFESSKKSAGTGNSQDAIEFLLDHLNDNAITCKDNNSKESC

>  <koff>
3.85e-05 s⁻¹

$$$$
>  <binder>
CIDRα1.8b domain 2053-3 (patient isolate 2053) (domain or fragment) PICGVKCENKSCTDKENDDDCKNKKKYDPPKGVTPIDIPILYSGDKQGDITKKLEDFCYNRTKENEKTYQNWKCYYKDSEFNKCKMESKSGKSTTQEKIISFDEFFYLWVNNLLIDSIMWENDIKHCINNTNVTNCKNKCNENCKCFKNWVKKKEEEWTKVKQILGNRSENLNNYYNKLNSLFKGFFFEVVYKFNNKEEKWNKLTEKLEQKIGSSKGKEGVENPKDAIELLLDHLKENAITCKDNNSLEEDKNCPKIKINPC

>  <koff>
7.65e-05 s⁻¹

$$$$
>  <binder>
CIDRα1.6a domain of PfEMP1 HB3var02 (domain or fragment, also called CIDRa1.6a HB3var02_HB3; HB3var02 (1.6a)) PECGVQCSGTTCTPKKVIHPNCKDKETYEPGDAKTTDITVLYSGDEEGDIAQKLQDFCNDKNKENDENYEKWQCYYKSSEINKCQMTRSSKKVPKHRGVMSFYAFFDLWVKNLLIDSINWKNDLTNCINNTNVTDCNKDCNKNCVCFDQWVIKKEEEWKNVNKVFENKNIDLHDYYNKLNKHFEGYFFHVMKELNKEEKWYKLMEDLKEKIDFSKGKADGKNSEGAIKVLFDHLKEIAEKCIHNNSNESCEASTNRTPNPC

>  <koff>
0.00139 s⁻¹

$$$$
>  <binder>
CIDRα1.8b domain GA029_ERS010532 (domain or fragment, also called CIDRa1.8b GA029_ERS010532; GA029 (1.8b)) PDCVVVCERGNCTEKKGDDKCRKKYTYEIPAGMESTKIDILFSGENQEDITEKLRSFCKNTNNENGENIEKWECYYKNEYDNKCKMTSLKREDQKHHDLMSYYEFFDFWVTHLIKDTIKWESDINDCINNTNVTNCNNGCNENCICFEKWVGQKEKEWENVKKVLKNPSENLNNYYNKLNGIFSGFFFGVMHELKKKEAKQGVKVEKAEKSEEAQEAQEEEAKWNKLTAKLEEIIKSHKENTGTGNTQDAIEPLLKYLDENAITCKDNNSLKEDKNCPKTKKNPC

>  <koff>
0.000158 s⁻¹

$$$$
>  <binder>
CIDRα1.1 domain of PfEMP1 IT4var20 (domain or fragment, also called CIDRa1.1 IT4var20_IT4; IT4var20 (1.1)) PDCVVQCKGGKCTEDKKNDKCRSKIIKKILQSEEPTEIHVLNSDDKQGDITKKLEVFCSSTTNYEGRNVQKWKCYNKNSDYNNCEMNISSYKDSTDANVMLSVECFHSWAKNLLIDTIKWEHQLKNCINNTNVTYCESKCIKNCECYEKWIKRKEHEWEKVKNVFGNNNRMSYIYYNNLSRVFDSFLFQVMFALDQDEKGKWDQFTEDLKKKFEPSKTNTPTGKSQDAIEFLLDHLKDNALTCRDNNSNESCDVSKKVKTNPC

>  <koff>
0.000123 s⁻¹

$$$$
>  <binder>
CIDRα1.6a domain of PfEMP1 PFD1235w (domain or fragment, also called CIDRa1.6a PFD1235w_3D7; PFD1235w (1.6a)) PECGVQCSGTTCTPKKVIHPNCKDKETYEPGDAKTTDITVLYSGDEEGDIAQKLQDFCNDKNKENDENYEKWQCYYKSSEINKCQMTPSSHKVPKHGYIMSFYAFFDLWVKNLLIDSINWKNDLTNCINNTNVTDCKNDCNTNCKCFENWAKTKENEWKKVKTIYKNENGNTNNYYKKLNNHFQGYFFHVMKELNKEEKWYKLMEDLKEKIDSSNLKNGTKDSEGAIKVLFDHLKDIAERCIDNNSKDSC

>  <koff>
6.62e-05 s⁻¹

$$$$
